Test: Solubility, 24-hour equilibration at room temperature
Format: physicochemical
Details: organic solvent or mixture, thermodynamic from solid; Ethanol, approx. at 25° C.
MEASUREMENT TYPE: solubility at 24 h (µg/mL)
Answers are plain numbers, in µg/mL.

Q. Note down solubility at 24 h recorded for Cc1[nH]c2ccccc2c1CCNCc1ccc(/C=C/C(=O)NO)cc1 [Free base]
A. 1500

###

For each record, write down the corresponding pH of saturated solution.
Experiment: pH of saturated solution or 1% suspension in water
Type: physicochemical
Settings: In pH = 6.8 buffer
Give bare numbers.

> print(dat)
                                   molecule          measurement.type  observed.value
1  Cc1[nH]c2ccccc2c1CCNCc1ccc(/C=C/C(=O)NO)cc1 [Free base]  pH of saturated solution            6.91
2  Cc1[nH]c2ccccc2c1CCNCc1ccc(/C=C/C(=O)NO)cc1.Cl [HCl]  pH of saturated solution            5.67
3  Cc1[nH]c2ccccc2c1CCNCc1ccc(/C=C/C(=O)NO)cc1.O=C(O)/C=C\C(=O)O [Maleate]  pH of saturated solution            5.70

Below: the item to evaluate.
Q. Note down pH of saturated solution recorded for CS(=O)(=O)O.Cc1[nH]c2ccccc2c1CCNCc1ccc(/C=C/C(=O)NO)cc1 [Mesylate]
A. 5.38

###

Experiment: Solution stability (HPLC)
Assay type: physicochemical
Details: 2 mg/mL in water, 1 week at 50° C.
MEASUREMENT TYPE: CL (appearance)

> print(dat)
                                   molecule  measurement.type  observed.value
1  Cc1[nH]c2ccccc2c1CCNCc1ccc(/C=C/C(=O)NO)cc1 [Free base]   CL (appearance)              A↓
2  Cc1[nH]c2ccccc2c1CCNCc1ccc(/C=C/C(=O)NO)cc1.O=C(O)/C=C\C(=O)O [Maleate]   CL (appearance)              A↓
3  Cc1[nH]c2ccccc2c1CCNCc1ccc(/C=C/C(=O)NO)cc1.Cl [HCl]   CL (appearance)             A↓*
4  CC(O)C(=O)O.Cc1[nH]c2ccccc2c1CCNCc1ccc(/C=C/C(=O)NO)cc1.O (racemic) [Monohydrate DL-lactate salt]   CL (appearance)              A↓

###

For each record, write down the corresponding % DP (total degradation products).
Test: Stability of mixtures with excipients
Format: physicochemical
Settings: Mixture 1: 50% PVP + 50% Crospovidone; 50° C./75% r.h., 2 weeks
Answers are plain numbers, in % area.

> print(dat)
                                   molecule  observed.value
1  Cc1[nH]c2ccccc2c1CCNCc1ccc(/C=C/C(=O)NO)cc1.O=C(O)/C=C\C(=O)O [Maleate]             0.5
2  CS(=O)(=O)O.Cc1[nH]c2ccccc2c1CCNCc1ccc(/C=C/C(=O)NO)cc1 [Mesylate]             0.8
3  Cc1[nH]c2ccccc2c1CCNCc1ccc(/C=C/C(=O)NO)cc1.Cl [HCl]             0.6

Below: the item to evaluate.
Q. Note down % DP (total degradation products) recorded for CC(O)C(=O)O.Cc1[nH]c2ccccc2c1CCNCc1ccc(/C=C/C(=O)NO)cc1.O (racemic) [Monohydrate DL-lactate salt]
A. 0.6

###

Assay: Solution stability (HPLC)
Format: physicochemical
Details: 2% in 0.5% Klucel HF, 1 day at RT
For each record, write down the corresponding % DP (total degradation products).
Answers are plain numbers, in % area.

Consider the worked cases shown below.
> print(dat)
                                   molecule                   measurement.type  unit.abbrev  observed.value
1  CS(=O)(=O)O.Cc1[nH]c2ccccc2c1CCNCc1ccc(/C=C/C(=O)NO)cc1 [Mesylate]  % DP (total degradation products)       % area            0.66
2  Cc1[nH]c2ccccc2c1CCNCc1ccc(/C=C/C(=O)NO)cc1.O=C(O)/C=C\C(=O)O [Maleate]  % DP (total degradation products)       % area            0.55
3  CC(O)C(=O)O.Cc1[nH]c2ccccc2c1CCNCc1ccc(/C=C/C(=O)NO)cc1.O (racemic) [Monohydrate DL-lactate salt]  % DP (total degradation products)       % area            0.43

Q. Note down % DP (total degradation products) recorded for Cc1[nH]c2ccccc2c1CCNCc1ccc(/C=C/C(=O)NO)cc1.Cl [HCl]
A. 0.43

###

Assay: Solution stability (HPLC)
Format: physicochemical
Details: 2 mg/mL in 100 mM lactate buffer, pH 3.5
Description: All samples were prepared/diluted to a concentration of 0.2 mg/mL in methanol prior to analysis by HPLC. A freshly prepared sample of each salt was used as the reference standard for external standard calibration analysis.
MEASUREMENT TYPE: pH of initial mixture

Consider the worked cases shown below.
> print(dat)
                                   compound  observed.value
1  Cc1[nH]c2ccccc2c1CCNCc1ccc(/C=C/C(=O)NO)cc1.Cl [HCl]            3.52
2  Cc1[nH]c2ccccc2c1CCNCc1ccc(/C=C/C(=O)NO)cc1 [Free base]            3.60
3  CC(O)C(=O)O.Cc1[nH]c2ccccc2c1CCNCc1ccc(/C=C/C(=O)NO)cc1.O (racemic) [Monohydrate DL-lactate salt]            3.57

Provide the reported pH of initial mixture of each entry below, same order.
1. Cc1[nH]c2ccccc2c1CCNCc1ccc(/C=C/C(=O)NO)cc1.O=C(O)/C=C\C(=O)O [Maleate]
2. CS(=O)(=O)O.Cc1[nH]c2ccccc2c1CCNCc1ccc(/C=C/C(=O)NO)cc1 [Mesylate]

A.
3.51
3.48

###

Assay: Stability of mixtures with excipients
Assay type: physicochemical
Conditions: Mixture 4: 99% Lactose + 1% BHT/BHA; 50° C./75% r.h., 2 weeks
For each record, write down the corresponding % DP (total degradation products).
One number for each entry, in % area.

Consider the worked cases shown below.
> print(dat)
                                   molecule                   measurement.type  unit.abbrev  observed.value
1  CS(=O)(=O)O.Cc1[nH]c2ccccc2c1CCNCc1ccc(/C=C/C(=O)NO)cc1 [Mesylate]  % DP (total degradation products)       % area             0.8
2  Cc1[nH]c2ccccc2c1CCNCc1ccc(/C=C/C(=O)NO)cc1.O=C(O)/C=C\C(=O)O [Maleate]  % DP (total degradation products)       % area             0.3
3  Cc1[nH]c2ccccc2c1CCNCc1ccc(/C=C/C(=O)NO)cc1.Cl [HCl]  % DP (total degradation products)       % area             0.5

Below: the item to evaluate.
Q. Note down % DP (total degradation products) recorded for CC(O)C(=O)O.Cc1[nH]c2ccccc2c1CCNCc1ccc(/C=C/C(=O)NO)cc1.O (racemic) [Monohydrate DL-lactate salt]
A. 0.5

###

For each record, write down the corresponding % DS (drug substance).
Experiment: Stability of mixtures with excipients
Assay type: physicochemical
Details: Mixture 4: 99% Lactose + 1% BHT/BHA; 50° C./75% r.h., 2 weeks
Give bare numbers, in % area.

> print(dat)
                                   compound  unit.abbrev  observed.value
1  Cc1[nH]c2ccccc2c1CCNCc1ccc(/C=C/C(=O)NO)cc1 [Free base]       % area            99.4

Provide the reported % DS (drug substance) of each entry below, same order.
1. CS(=O)(=O)O.Cc1[nH]c2ccccc2c1CCNCc1ccc(/C=C/C(=O)NO)cc1 [Mesylate]
2. Cc1[nH]c2ccccc2c1CCNCc1ccc(/C=C/C(=O)NO)cc1.O=C(O)/C=C\C(=O)O [Maleate]
3. CC(O)C(=O)O.Cc1[nH]c2ccccc2c1CCNCc1ccc(/C=C/C(=O)NO)cc1.O (racemic) [Monohydrate DL-lactate salt]
4. Cc1[nH]c2ccccc2c1CCNCc1ccc(/C=C/C(=O)NO)cc1.Cl [HCl]

A.
1: 99.2; 2: 99.7; 3: 99.5; 4: 99.5

###

Test: Stability of mixtures with excipients
Format: physicochemical
Conditions: Mixture 6: 50% Mannitol + 47% HPCLH21 + 1% BHT/BHA + 2% Magnesium Stearate; 50° C./75% r.h., 2 weeks
MEASUREMENT TYPE: % DP (total degradation products)

> print(dat)
                                   molecule  observed.value
1  CC(O)C(=O)O.Cc1[nH]c2ccccc2c1CCNCc1ccc(/C=C/C(=O)NO)cc1.O (racemic) [Monohydrate DL-lactate salt]      0.6 % area

Provide the reported % DP (total degradation products) of each entry below, same order.
1. CS(=O)(=O)O.Cc1[nH]c2ccccc2c1CCNCc1ccc(/C=C/C(=O)NO)cc1 [Mesylate]
2. Cc1[nH]c2ccccc2c1CCNCc1ccc(/C=C/C(=O)NO)cc1.O=C(O)/C=C\C(=O)O [Maleate]
3. Cc1[nH]c2ccccc2c1CCNCc1ccc(/C=C/C(=O)NO)cc1.Cl [HCl]

A.
["0.7 % area", "0.3 % area", "0.5 % area"]

Source: patent US20110112308A1
